This collection of values is drawn from patent US20140212495A1.

test: 4-week subchronic toxicity study in dogs, D-24851 plasma pharmacokinetics; assay type: in vivo; conditions: male, dog, plasma, iv, 12.1 mg/kg, Day 1; Composition 4 i.v. 12.1 mg/kg; Males; Meanar n=3

{"querySmiles": "O=C(Nc1ccncc1)C(=O)c1cn(Cc2ccc(Cl)cc2)c2ccccc12", "unitLabel": "h", "half-life": 8.74}

###

experiment: 4-week subchronic toxicity study in dogs, D-24851 plasma pharmacokinetics; format: in vivo; details: female, dog, plasma, iv, 12.1 mg/kg, Day 1; Composition 4 i.v. 12.1 mg/kg; Females; Meanar n=3; read-out: AUCτ, sd

{"compound": "O=C(Nc1ccncc1)C(=O)c1cn(Cc2ccc(Cl)cc2)c2ccccc12 [Composition D-24851]", "AUC [ng·h/mL]": 7670}

###

test: 4-week subchronic toxicity study in dogs, D-24851 plasma pharmacokinetics; format: in vivo; settings: female, dog, plasma, iv, 12.1 mg/kg, Day 1; Composition 4 i.v. 12.1 mg/kg; Females; Meanar n=3

{"querySmiles": "O=C(Nc1ccncc1)C(=O)c1cn(Cc2ccc(Cl)cc2)c2ccccc12", "half-life (h)": 11.6}

###

test: 4-week subchronic toxicity study in dogs, D-24851 plasma pharmacokinetics; type: in vivo; settings: male, dog, plasma, iv, 12.1 mg/kg, Day 27; Composition 4 i.v. 12.1 mg/kg; Males; Meanar n=3; read-out: Cmax, md
readoutKind: Cmax (ng/mL)

{"querySmiles": "O=C(Nc1ccncc1)C(=O)c1cn(Cc2ccc(Cl)cc2)c2ccccc12", "readoutKind": "Cmax", "number": 435}

###

assay: 4-week subchronic toxicity study in dogs, D-24851 plasma pharmacokinetics; type: in vivo; conditions: female, dog, plasma, iv, 12.1 mg/kg, Day 27; Composition 4 i.v. 12.1 mg/kg; Females; Meanar n=3; read-out: tmax, md
readoutKind: Tmax (h)

{"querySmiles": "O=C(Nc1ccncc1)C(=O)c1cn(Cc2ccc(Cl)cc2)c2ccccc12", "unitLabel": "h", "number": 2.67}

###

Test: 4-week subchronic toxicity study in dogs, D-24851 plasma pharmacokinetics
Assay type: in vivo
Settings: male, dog, plasma, iv, 5.62 mg/kg, Day 1; Composition 4 i.v. 5.62 mg/kg; Males; Meanar n=3; read-out: AUCτ, sd
Method: Blood samples from all animals were taken at the following times: 1 h, 2 h, 4 h, 8 h, 16 h, 24 h, 36 h and 48 hours after application. The concentration levels of D-24851 were measured using HPLC.

{"querySmiles": "O=C(Nc1ccncc1)C(=O)c1cn(Cc2ccc(Cl)cc2)c2ccccc12", "AUC [ng·h/mL]": 2590}

###

assay: 4-week subchronic toxicity study in dogs, D-24851 plasma pharmacokinetics; type: in vivo; settings: male, dog, plasma, iv, 5.62 mg/kg, Day 1; Composition 4 i.v. 5.62 mg/kg; Males; Meanar n=3
readoutKind: half-life (h)

{"querySmiles": "O=C(Nc1ccncc1)C(=O)c1cn(Cc2ccc(Cl)cc2)c2ccccc12", "unitLabel": "h", "number": 6.63}

###

test: 4-week subchronic toxicity study in dogs, D-24851 plasma pharmacokinetics; type: in vivo; details: female, dog, plasma, iv, 5.62 mg/kg, Day 27; Composition 4 i.v. 5.62 mg/kg; Females; Meanar n=3; read-out: tmax, md

{"molecule": "O=C(Nc1ccncc1)C(=O)c1cn(Cc2ccc(Cl)cc2)c2ccccc12 [Composition D-24851]", "unitLabel": "h", "Tmax": 2.33}

###

test: 4-week subchronic toxicity study in dogs, D-24851 plasma pharmacokinetics; format: in vivo; details: male, dog, plasma, iv, 5.62 mg/kg; read-out: AUCτ, md

{"querySmiles": "O=C(Nc1ccncc1)C(=O)c1cn(Cc2ccc(Cl)cc2)c2ccccc12", "AUC (ng·h/mL)": 1850}

###

assay: 4-week subchronic toxicity study in dogs, D-24851 plasma pharmacokinetics; format: in vivo; conditions: female, dog, plasma, iv, 12.1 mg/kg, Day 1; Composition 4 i.v. 12.1 mg/kg; Females; Meanar n=3; read-out: AUCsd

{"querySmiles": "O=C(Nc1ccncc1)C(=O)c1cn(Cc2ccc(Cl)cc2)c2ccccc12", "AUC": "8.25 µg·h/mL"}

###

experiment: 4-week subchronic toxicity study in dogs, D-24851 plasma pharmacokinetics; type: in vivo; details: male, dog, plasma, iv, 2.61 mg/kg, Day 1; Composition 4 i.v. 2.61 mg/kg; Males; Meanar n=3; read-out: tmax, sd

{"querySmiles": "O=C(Nc1ccncc1)C(=O)c1cn(Cc2ccc(Cl)cc2)c2ccccc12", "Tmax": "1.67 h"}

###

Assay: 4-week subchronic toxicity study in dogs, D-24851 plasma pharmacokinetics
Type: in vivo
Conditions: female, dog, plasma, iv, 5.62 mg/kg, Day 27; Composition 4 i.v. 5.62 mg/kg; Females; Meanar n=3
Procedure: Blood samples from all animals were taken at the following times: 1 h, 2 h, 4 h, 8 h, 16 h, 24 h, 36 h and 48 hours after application. The concentration levels of D-24851 were measured using HPLC.

{"querySmiles": "O=C(Nc1ccncc1)C(=O)c1cn(Cc2ccc(Cl)cc2)c2ccccc12", "half-life / h": 14.8}

###

experiment: 4-week subchronic toxicity study in dogs, D-24851 plasma pharmacokinetics; type: in vivo; settings: male, dog, plasma, iv, 5.62 mg/kg, Day 27; Composition 4 i.v. 5.62 mg/kg; Males; Meanar n=3; read-out: tmax, md

{"molecule": "O=C(Nc1ccncc1)C(=O)c1cn(Cc2ccc(Cl)cc2)c2ccccc12 [Composition D-24851]", "Tmax, h": 2.33}

###

test: 4-week subchronic toxicity study in dogs, D-24851 plasma pharmacokinetics; format: in vivo; details: male, dog, plasma, iv, 2.61 mg/kg, Day 1; Composition 4 i.v. 2.61 mg/kg; Males; Meanar n=3; read-out: Cmax, sd
readoutKind: Cmax (ng/mL)

{"querySmiles": "O=C(Nc1ccncc1)C(=O)c1cn(Cc2ccc(Cl)cc2)c2ccccc12", "readoutKind": "Cmax", "number": 147}

###

test: 4-week subchronic toxicity study in dogs, D-24851 plasma pharmacokinetics; format: in vivo; conditions: male, dog, plasma, iv, 12.1 mg/kg, Day 1; Composition 4 i.v. 12.1 mg/kg; Males; Meanar n=3; read-out: AUCτ, sd

{"molecule": "O=C(Nc1ccncc1)C(=O)c1cn(Cc2ccc(Cl)cc2)c2ccccc12 [Composition D-24851]", "AUC": "6870 ng·h/mL"}

###

Test: 4-week subchronic toxicity study in dogs, D-24851 plasma pharmacokinetics
Type: in vivo
Details: male, dog, plasma, iv, 2.61 mg/kg, Day 27; Composition 4 i.v. 2.61 mg/kg; Males; Meanar n=3; read-out: tmax, md
Method: Blood samples from all animals were taken at the following times: 1 h, 2 h, 4 h, 8 h, 16 h, 24 h, 36 h and 48 hours after application. The concentration levels of D-24851 were measured using HPLC.
readoutKind: Tmax (h)

{"molecule": "O=C(Nc1ccncc1)C(=O)c1cn(Cc2ccc(Cl)cc2)c2ccccc12 [Composition D-24851]", "unitLabel": "h", "number": 1.33}

###

assay: 4-week subchronic toxicity study in dogs, D-24851 plasma pharmacokinetics; type: in vivo; details: female, dog, plasma, iv, 2.61 mg/kg, Day 27; Composition 4 i.v. 2.61 mg/kg; Females; Meanar n=3; read-out: tmax, md

{"querySmiles": "O=C(Nc1ccncc1)C(=O)c1cn(Cc2ccc(Cl)cc2)c2ccccc12", "Tmax, h": 2.33}

###

experiment: 4-week subchronic toxicity study in dogs, D-24851 plasma pharmacokinetics; format: in vivo; conditions: female, dog, plasma, iv, 12.1 mg/kg, Day 27; Composition 4 i.v. 12.1 mg/kg; Females; Meanar n=3; read-out: Cmax, md

{"querySmiles": "O=C(Nc1ccncc1)C(=O)c1cn(Cc2ccc(Cl)cc2)c2ccccc12", "unitLabel": "ng/mL", "Cmax": 329}

###

experiment: 4-week subchronic toxicity study in dogs, D-24851 plasma pharmacokinetics; format: in vivo; conditions: female, dog, plasma, iv, 2.61 mg/kg; read-out: AUC0-tlast,md
readoutKind: AUC(0-t) (ng·h/mL)

{"compound": "O=C(Nc1ccncc1)C(=O)c1cn(Cc2ccc(Cl)cc2)c2ccccc12 [Composition D-24851]", "readoutKind": "AUC(0-t)", "unitLabel": "ng·h/mL", "number": 1100}

###

assay: 4-week subchronic toxicity study in dogs, D-24851 plasma pharmacokinetics; assay type: in vivo; details: male, dog, plasma, iv, 12.1 mg/kg, Day 27; Composition 4 i.v. 12.1 mg/kg; Males; Meanar n=3; read-out: AUCτ, md

{"querySmiles": "O=C(Nc1ccncc1)C(=O)c1cn(Cc2ccc(Cl)cc2)c2ccccc12", "unitLabel": "ng·h/mL", "AUC": 5620}

###

assay: 4-week subchronic toxicity study in dogs, D-24851 plasma pharmacokinetics; format: in vivo; conditions: male, dog, plasma, iv, 5.62 mg/kg, Day 1; Composition 4 i.v. 5.62 mg/kg; Males; Meanar n=3; read-out: AUCsd
readoutKind: AUC (ng·h/mL)

{"querySmiles": "O=C(Nc1ccncc1)C(=O)c1cn(Cc2ccc(Cl)cc2)c2ccccc12", "readoutKind": "AUC", "number": 2470}
